Test system: 485176-168-R4-J1-PDC spheroids with HUVEC/MSC, viability;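 note: spheroids exposed to compounds for seven days before readout; percent viability relative to DMSO vehicle control wells as 100%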
EXPERIMENT DESCRIPTION: Anticancer human tumor 485176-168-R4-J1-PDC patient-derived pancreatic adenocarcinoma cell line growth inhibition [GQUAD]
PARTICULARS: second compound 0.316 µM; first compound 3.16 µM; stronger effect = lower value
Below is a list of entries, each paired with its recorded viability, T/C value.
Quick reminder: number only, in %, skip the unit.

// query Which measured viability, T/C value corresponds to C=CCn1c(=O)c2cnc(Nc3ccc(N4CCN(C)CC4)cc3)nc2n1-c1cccc(C(C)(C)O)n1 + Cc1[nH]c2ccc(F)cc2c1-c1nc2c3cccnc3c3ncccc3c2[nH]1 ?
// result 6.26

// query Fill in: viability, T/C of Cc1cccc(N(C)C(=O)C2C(O)CCN2c2nc(C)cc(C(F)(F)F)c2C#N)c1 (stereo not drawn) + CN(C)c1ccc(Nc2c3ccc(NC(=O)CCN4CCCC4)cc3nc3cc(NC(=O)CCN4CCCC4)ccc23)cc1 is ___
// result 118

// query Reported viability, T/C, compound COc1ncnc(C2CC2)c1-c1ncc2cnn(Cc3ccc(-c4nc(C(F)(F)F)cn4C(C)C)cc3)c2n1 + CN(C)c1ccc(Nc2c3ccc(NC(=O)CCN4CCCC4)cc3nc3cc(NC(=O)CCN4CCCC4)ccc23)cc1 : ____
// result 87.4

meta.source: PubChem BioAssay AID2060509
